Molecular target: Short transient receptor potential channel 6 (Mus musculus) (UniProt Q61143)
Sequence (Q61143 whole entry, looked up): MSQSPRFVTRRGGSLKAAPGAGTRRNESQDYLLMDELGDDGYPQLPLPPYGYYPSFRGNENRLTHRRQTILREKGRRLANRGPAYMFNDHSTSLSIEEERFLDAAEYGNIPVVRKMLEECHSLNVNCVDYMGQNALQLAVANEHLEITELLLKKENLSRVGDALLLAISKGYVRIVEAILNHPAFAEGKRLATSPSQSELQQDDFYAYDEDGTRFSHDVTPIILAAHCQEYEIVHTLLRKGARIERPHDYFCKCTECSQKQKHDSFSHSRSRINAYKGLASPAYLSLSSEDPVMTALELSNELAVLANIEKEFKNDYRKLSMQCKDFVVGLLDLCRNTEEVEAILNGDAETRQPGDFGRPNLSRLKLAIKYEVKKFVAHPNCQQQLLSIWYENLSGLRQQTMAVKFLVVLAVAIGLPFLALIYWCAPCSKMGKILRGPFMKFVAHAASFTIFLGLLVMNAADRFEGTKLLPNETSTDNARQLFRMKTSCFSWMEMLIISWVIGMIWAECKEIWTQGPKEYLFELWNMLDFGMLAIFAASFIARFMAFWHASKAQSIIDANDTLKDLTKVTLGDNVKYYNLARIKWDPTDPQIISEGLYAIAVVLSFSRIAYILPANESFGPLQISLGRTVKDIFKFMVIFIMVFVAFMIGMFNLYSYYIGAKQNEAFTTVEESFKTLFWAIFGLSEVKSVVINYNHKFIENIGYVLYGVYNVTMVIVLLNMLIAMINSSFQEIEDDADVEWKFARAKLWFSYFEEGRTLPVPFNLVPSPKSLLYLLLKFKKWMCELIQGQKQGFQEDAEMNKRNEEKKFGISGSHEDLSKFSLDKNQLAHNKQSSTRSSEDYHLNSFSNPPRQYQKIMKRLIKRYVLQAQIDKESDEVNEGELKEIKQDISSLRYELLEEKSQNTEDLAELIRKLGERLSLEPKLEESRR
Experiment: TRPC6 blockade by TRPC4 inhibitor hits – cell-based, HEK293, membrane potential dye, duplicate, selectivity assay for TRPC4 inhibitor project, confirmation (AID 434948)
Conditions: HEK293 TRPC6, membrane potential dye fluorescence, at 10 µM, stimulated with maximal-effect acetylcholine
Active and inactive are the calls of the source.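 The calls were made as follows: active = active in primary screen and both duplicates, each dropping signal beyond three positive-control SD with fluorescence still positive; inactive = the rest.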
Returns: one label drawn from active, inactive

INPUT: Hello, I am checking results. What call was entered for COc1ccc(C2C(O)C(c3c[nH]c4ccccc34)=NN2C(=O)CCl)cc1 (stereo unspecified) ?
OUTPUT: inactive

INPUT: Hello, I am checking results. What call was entered for C=CCn1c(/N=C/c2ccc(N(C)C)cc2)nc2ccccc21 ?
OUTPUT: inactive

INPUT: Hello, I am checking results. What call was entered for Cc1cc2[nH]c3ccccc3c2c(C)n1 ?
OUTPUT: active

INPUT: Hello, I am checking results. What call was entered for CC(C)(C)CC(C)(C)NCC(O)COc1ccc2c(c1)CCC2 (stereo unspecified) ?
OUTPUT: inactive

INPUT: Hello, I am checking results. What call was entered for CN1CCN(c2ccc(NC(=O)c3ccc(Br)o3)cc2)CC1 ?
OUTPUT: inactive

INPUT: Hello, I am checking results. What call was entered for Cc1ccccc1-n1c(=O)c2c(n3cnnc13)-c1ccccc1CC21CCCCC1 ?
OUTPUT: inactive

INPUT: Hello, I am checking results. What call was entered for CCOc1ccc(S(=O)(=O)N2CCN(C(=S)NC3CC3)CC2)cc1 ?
OUTPUT: inactive

INPUT: Hello, I am checking results. What call was entered for CSc1nc(N2CCOCC2)c2c3c(sc2n1)CCCC3 ?
OUTPUT: inactive

INPUT: Hello, I am checking results. What call was entered for N=c1sccn1CC(=O)Nc1ccccc1Oc1ccccc1 ?
OUTPUT: active

INPUT: Hello, I am checking results. What call was entered for COC(=O)C(CC(=O)Nc1cc(C)ccc1C)Nc1ccccc1OC (stereo unspecified) ?
OUTPUT: inactive

INPUT: Hello, I am checking results. What call was entered for COc1ccc2sc(N(CCCN(C)C)C(=O)c3ccc(S(=O)(=O)N4CCCc5ccccc54)cc3)nc2c1 ?
OUTPUT: inactive

###

Test system: TRPC4 beta (transient receptor potential cation channel C4), mouse
Test: potentiation of DAMGO EC20 TRPC4 response – cell-based, Fluo-4, HEK293 TRPC4beta/mu-opioid, confirmation (AID 2555)
Conditions: DAMGO EC20, Fluo-4 calcium flux, at 10 µM
Activity calls are given as the source filed them.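 How the source made its calls: active means primary screen hit whose calcium fluorescence ratio, in both repeats, exceeds the weak agonist control mean by 3 SD; inactive means the rest.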
Returns: one label drawn from y = active, n = inactive

INPUT: Hello, I am checking results. What call was entered for COc1ccc(C(CNC(=O)c2ccc3c(c2)OCCO3)N(C)C)cc1 (stereo unspecified) ?
OUTPUT: n

INPUT: Hello, I am checking results. What call was entered for Cc1ccc(Oc2ccccc2NC(=O)CSCC(=O)Nc2cc(C)on2)cc1 ?
OUTPUT: n

INPUT: Hello, I am checking results. What call was entered for CCCNc1nc2ccccc2n2c(C)nnc12 ?
OUTPUT: n

INPUT: Hello, I am checking results. What call was entered for COc1ccc(CN(C(=O)c2snc(C(N)=O)c2N)C(CC(C)C)C(=O)NC2CCCCC2)cc1 (stereo unspecified) ?
OUTPUT: n

INPUT: Hello, I am checking results. What call was entered for N=c1c(C(=O)NCc2ccc(F)cc2)cc2c(=O)n3ccccc3nc2n1Cc1ccco1 ?
OUTPUT: y

INPUT: Hello, I am checking results. What call was entered for Cc1cc(N2CCCCCC2)nc2ccccc12 ?
OUTPUT: n

INPUT: Hello, I am checking results. What call was entered for CN(Cc1ccccc1)C(=O)c1oc(=O)c2ccccc2c1-c1ccccc1 ?
OUTPUT: n

INPUT: Hello, I am checking results. What call was entered for COc1ccc(-n2c3c(cc(C(=O)NNc4ccccc4)c2=O)C(=O)CC(C)(C)C3)cc1 ?
OUTPUT: n

INPUT: Hello, I am checking results. What call was entered for CC(C1CC2CCC1C2)n1c(-c2cccs2)n[nH]c1=S (stereo unspecified) ?
OUTPUT: n

INPUT: Hello, I am checking results. What call was entered for CCCCN(C)CCNC(=O)c1c[nH]c2ccc(S(=O)(=O)N(CC)CC)cc2c1=O ?
OUTPUT: y

INPUT: Hello, I am checking results. What call was entered for CC(CN1CCCC(C(N)=O)C1)c1ccccc1 (stereo unspecified) ?
OUTPUT: n
